Values from patent US5753660A

Target: UniProt:P04585
pIC50: −log10 of the molar value.
Output Criterion met for pIC50 not less than 8; output Criterion not met otherwise.

Solved cases (5 shown):
{"smiles.notation": "CC(C)CN(C[C@@H](O)[C@H](Cc1ccccc1)NC(=O)[C@H](C)CS(=O)(=O)C[C@H]1CCCN1)S(=O)(=O)c1ccc2c(c1)OCO2", "label": "Criterion met"}
{"smiles.notation": "CC(C)CN(C[C@@H](O)[C@H](Cc1ccccc1)NC(=O)[C@H](C)CS(=O)(=O)CC(CO)CO)S(=O)(=O)c1ccc2c(c1)OCO2", "label": "Criterion met"}
{"smiles.notation": "CC(C)CN(C[C@@H](O)[C@H](Cc1ccccc1)NC(=O)[C@H](C)CS(=O)(=O)Cc1cncs1)S(=O)(=O)c1ccc2c(c1)OCO2", "label": "Criterion met"}
{"smiles.notation": "CC(C)CN(C[C@@H](O)[C@H](Cc1ccccc1)NC(=O)[C@H](C)CSCC(=O)N1CCSCC1)S(=O)(=O)c1ccc2c(c1)OCO2", "label": "Criterion not met"}
{"smiles.notation": "CC(C)CN(C[C@@H](O)[C@H](Cc1ccccc1)NC(=O)[C@H](C)CS(=O)(=O)Cc1nc2ccccc2[nH]1)S(=O)(=O)c1ccc2c(c1)OCO2", "label": "Criterion met"}

Let us examine a further case.
API: above_or_equal(metric=pIC50, cutoff=8) for item CC(C)CN(C[C@@H](O)[C@H](Cc1ccccc1)NC(=O)[C@H](C)CS(=O)(=O)Cc1cc[nH]n1)S(=O)(=O)c1ccc2c(c1)OCO2
Criterion met
